Assay explanation: chemical genetic growth profiling, strain panel (AID 1159580);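 further: tested at 20 µM; growth read once vehicle control cultures reached saturation at 30 °C; 1 = growth at the plate median or of vehicle wells; lower values mean less growth of the strain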
Measurement context: S. cerevisiae deletion strains, growth OD, locus YOR316C, strain cot1, stronger effect = lower value
Hit rate of the full screen: of about 5,500 compounds, about 2,000 (36%) were called active. About 18% were inconclusive and are not listed. The list shows a part of the results.
Measurement type: normalized growth
I'd appreciate a reply containing only the number, no unit.

{"Compound": "Cn1nnnc1SCC1=C(C(=O)O)N2C(=O)C(NC(=O)C(OC=O)c3ccccc3)C2SC1 (stereo not given)", "Measurement type": "normalized growth", "Observed measurement": 1.02}
{"Compound": "CC(=O)OCC(=O)[C@@]1(O)CCC2C3CCC4=CC(=O)CC[C@]4(C)[C@@]3(F)[C@@H](O)C[C@@]21C (stereo not given in full)", "Measurement type": "normalized growth", "Observed measurement": 1.01}
{"Compound": "COC(=O)C[C@H]1C(C)(C)C(OC(C)=O)[C@]2(O)C=C3C4CC(=O)O[C@@H](c5ccoc5)[C@]4(C)CCC3[C@@]1(C)C2=O (stereo not given in full)", "Measurement type": "normalized growth", "Observed measurement": 1.01}

Input: // normalized growth lookup, key: OCCN1CCN(CCCN2c3ccccc3Sc3ccc(Cl)cc32)CC1
Output: 0.994

Input: Param item: Cc1cccc(N(C)C(=S)Oc2ccc3ccccc3c2)c1
Output: 0.975

---

Assay explanation: chemical genetic growth profiling, strain panel (AID 1159580)
Measurement context: S. cerevisiae deletion strains, growth OD, locus YKL160W, strain elf1
The whole screen tested about 5,500 compounds, of which about 2,000 (36%) were called active. Another 18% or so got no clear call; they are omitted. Cut-off read from the data, not from the text of the source: active = normalized growth mostly below about 0.91 (no sharp cut-off); inconclusive = no clear call, values can overlap the other calls; inactive = mostly above about 0.92. Some of the results follow.
The categories you may choose from are active, inactive

{"Compound": "CC(=O)Oc1ccc2c(c1)CCC1C2CCC2(C)C1CC(OC(C)=O)C2OC(C)=O (configuration not stated)", "Class name": "inactive"}
{"Compound": "Fc1ccc(C(c2ccc(F)cc2)N2CCN(C/C=C/c3ccccc3)CC2)cc1", "Class name": "active"}
{"Compound": "CCOC(=O)C1=C(C)NC(C)=C(C(=O)OC)C1c1cccc([N+](=O)[O-])c1 (configuration not stated)", "Class name": "inactive"}

Input: GET /call?item= CCCCC(=O)O[C@H]1CCC2C3CCc4cc(O)ccc4C3CC[C@@]21C (some centres not stated) returns the recorded outcome of this test.
Output: inactive

Input: Param item: CCC(=O)O[C@H]1CCC2C3CCc4cc(O)ccc4C3CC[C@@]21C (some centres not stated)
Output: inactive

Input: Param item: CC(C(=O)O)c1ccc(N2Cc3ccccc3C2=O)cc1 (configuration not stated)
Output: inactive

Input: Param item: COc1ccc(Cc2nccc3cc(OC)c(OC)cc23)cc1OC
Output: inactive

Input: Param item: Cn1nnnc1SCC1=C(C(=O)O)N2C(=O)C(NC(=O)C(OC=O)c3ccccc3)C2SC1 (configuration not stated)
Output: inactive

Input: Param item: CC(=O)Oc1ccc2c(c1)CCC1C2CC[C@@]2(C)C1CC[C@@H]2OC(C)=O (some centres not stated)
Output: inactive

Input: Param item: C[C@]12CCC3c4ccc(O)cc4CCC3C1CC[C@@H]2OC(=O)CCC1CCCC1 (some centres not stated)
Output: inactive

---

Recorded measurements of normalized growth, one per entry
Assay explanation: chemical genetic growth profiling, strain panel (AID 1159580)
Measurement context: S. cerevisiae deletion strains, growth OD, locus YNL250W, strain rad50, stronger effect = lower value
About 2,000 (36%) of roughly 5,500 compounds were called active. About 18% were inconclusive and are not listed. The list shows a part of the results.
I'd appreciate a reply containing only the number, no unit.

{"Molecule": "CC1(C)C=Cc2c(cc3occ(-c4ccc5c(c4)OCO5)c(=O)c3c2O)O1", "normalized growth": 1.06}
{"Molecule": "CSCCC(NC=O)C(=O)NC(CC(C)C)C(=O)NC(Cc1ccccc1)C(=O)O (stereo not drawn)", "normalized growth": 1.01}
{"Molecule": "O=C(CCCN1CC=C(n2c(=O)[nH]c3ccccc32)CC1)c1ccc(F)cc1", "normalized growth": 0.971}
{"Molecule": "COc1ccc(Cc2nccc3cc(OC)c(OC)cc23)cc1OC", "normalized growth": 0.985}
{"Molecule": "CCOc1ccc(Cc2nccc3cc(OCC)c(OCC)cc23)cc1OCC", "normalized growth": 0.98}
{"Molecule": "CCOc1nc2cccc(C(=O)OC(C)OC(=O)OC3CCCCC3)c2n1Cc1ccc(-c2ccccc2-c2nn[nH]n2)cc1 (stereo not drawn)", "normalized growth": 0.991}
{"Molecule": "CCCc1nc(C(C)(C)O)c(C(=O)OCc2oc(=O)oc2C)n1Cc1ccc(-c2ccccc2-c2nn[nH]n2)cc1", "normalized growth": 0.992}
{"Molecule": "COc1cc(O)c(C(=O)c2ccccc2)c(OC)c1", "normalized growth": 1}

Input: // normalized growth lookup, key: COc1cc(OC)c2c(c1Cl)OC1(C2=O)C(O)=CC(=O)CC1C (stereo not drawn)
Output: 0.992

Input: Param item: COc1cc(O)c(C)c(O)c1
Output: 1.03

---

Assay explanation: chemical genetic growth profiling, strain panel (AID 1159580);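 further: tested at 20 µM; growth read once vehicle control cultures reached saturation at 30 °C; 1 = growth at the plate median or of vehicle wells; lower values mean less growth of the strain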
Measurement context: S. cerevisiae deletion strains, growth OD, locus YDL185W, strain tfp1, stronger effect = lower value
Among all 5,500 compounds or so, about 2,000 (36%) were called active. Roughly 18% stayed inconclusive and do not appear here. The list shows a part of the results.
Measurement type: normalized growth
I'd appreciate a reply containing only the number, no unit.

// worked examples, normalized growth included
{"Compound": "CC(=O)OC1CCC23C(=O)OC45CCC(C6=CC(=O)OC6)C4(C)CCC2C5CCC3(O)C1 (centres undefined)", "normalized growth": 0.992}
{"Compound": "CCCCC/C=C\\C/C=C\\C/C=C\\C/C=C\\CCCC(=O)O", "normalized growth": 0.974}
{"Compound": "N#Cc1ccc2c(c1)N(CCCN1CCC(O)CC1)c1ccccc1S2", "normalized growth": 1.03}
{"Compound": "CC(=O)Oc1ccc2c(c1)CCC1C2CC[C@@]2(C)C1CC[C@@H]2OC(C)=O (some centres undefined)", "normalized growth": 0.983}
{"Compound": "CC(C)=CCC1=C(O)c2ccccc2C(=O)C1=O", "normalized growth": 0.86}
{"Compound": "CN1Cc2c(N)cccc2C(c2ccccc2)C1 (centres undefined)", "normalized growth": 1.01}
{"Compound": "CCCCC(=O)O[C@H]1CCC2C3CCc4cc(O)ccc4C3CC[C@@]21C (some centres undefined)", "normalized growth": 0.988}
{"Compound": "COc1cc(O)c(C(=O)O)c(O)c1", "normalized growth": 0.949}

Input: // normalized growth lookup, key: CCC(=O)O[C@H]1CCC2C3CCc4cc(O)ccc4C3CC[C@@]21C (some centres undefined)
Output: 1.01

Input: Param item: Cc1cc(C)nc(NS(=O)(=O)c2ccc(N)cc2)n1
Output: 0.938

Input: Param item: Cn1nnnc1SCC1=C(C(=O)O)N2C(=O)C(NC(=O)C(OC=O)c3ccccc3)C2SC1 (centres undefined)
Output: 1.01

Input: Param item: C[C@]12CCC3c4ccc(O)cc4CCC3C1CC[C@@H]2OC(=O)CCC1CCCC1 (some centres undefined)
Output: 0.975

Input: Param item: CC(=O)OC1CCC2C3CCc4cc(O)ccc4C3CCC12C (centres undefined)
Output: 1.02

---

Recorded measurements of normalized growth, one per entry
Assay explanation: chemical genetic growth profiling, strain panel (AID 1159580);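 further: tested at 20 µM; growth read once vehicle control cultures reached saturation at 30 °C; 1 = growth at the plate median or of vehicle wells; lower values mean less growth of the strain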
Measurement context: S. cerevisiae deletion strains, growth OD, locus YOR316C, strain cot1, stronger effect = lower value
The campaign covered roughly 5,500 compounds. About 2,000 (36%) were called active. Another 18% or so got no clear call; they are omitted. Some of the results follow.
I'd appreciate a reply containing only the number, no unit.

// worked examples, normalized growth included
{"Substance smiles": "CN1CCN(C(c2ccccc2)c2ccccc2)CC1", "Observed measurement": 0.958}
{"Substance smiles": "COc1ccc2c(c1)[nH]c1c(C)nccc12", "Observed measurement": 0.985}
{"Substance smiles": "c1ccc2c(c1)[nH]c1cnccc12", "Observed measurement": 0.988}
{"Substance smiles": "O=C(O)c1cc2cc(Cl)ccc2[nH]1", "Observed measurement": 0.983}

Moving on to another compound below.
Input: // normalized growth lookup, key: Fc1ccc(C(c2ccc(F)cc2)N2CCN(C/C=C/c3ccccc3)CC2)cc1
Output: 0.967

---

Assay explanation: chemical genetic growth profiling, strain panel (AID 1159580);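 further: tested at 20 µM; growth read once vehicle control cultures reached saturation at 30 °C; 1 = growth at the plate median or of vehicle wells; lower values mean less growth of the strain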
Measurement context: S. cerevisiae deletion strains, growth OD, locus YDR334W, strain swr1, stronger effect = lower value
Among all 5,500 compounds or so, about 2,000 (36%) were called active. Not shown: some 18% with an inconclusive outcome. Some of the results follow.
Measurement type: normalized growth
I'd appreciate a reply containing only the number, no unit.

{"Substance smiles": "CCCCC/C=C\\C/C=C\\C/C=C\\C/C=C\\CCCC(=O)O", "normalized growth": 0.969}

Input: // normalized growth lookup, key: O=c1n(CCCN2CCN(c3cccc(Cl)c3)CC2)nc2ccccn12
Output: 0.964

Input: Param item: CC(=O)N[C@@H](CC(=O)O)C(=O)O
Output: 1.01

Input: Param item: OCCN1CCN(CCCN2c3ccccc3Sc3ccc(Cl)cc32)CC1
Output: 1

Input: Param item: CC(=O)c1ccc2c(c1)N(CCCN(C)C)c1ccccc1S2
Output: 0.959

Input: Param item: O=C1c2ccc(O)c(O)c2C(=O)c2c(O)ccc(O)c21
Output: 0.424

Input: Param item: O=C1c2ccccc2C(=O)c2c(O)c(O)cc(O)c21
Output: 0.206

Input: Param item: O=C1c2ccccc2C(=O)c2c1ccc(O)c2O
Output: 0.298

Input: Param item: COc1c2occc2cc2ccc(=O)oc12
Output: 0.919

Input: Param item: COC(=O)C1=CO[C@@H](O[C@@H]2O[C@H](CO)[C@@H](O)[C@H](O)[C@H]2O)[C@@H]2[C@@H](C)[C@@H](O)C[C@H]12
Output: 1.01

Input: Param item: N#C/C(=C\c1ccc(O)cc1)C(=O)O
Output: 0.961

All values here come from PubChem BioAssay AID1159580.
